- assayExplanation: Pharmacokinetic profile after single oral, intranasal and intravenous betahistine in beagle dogs, Example 5
- Assay type: in vivo
- reportedConditions: female, beagle, dog, in vivo, iv, 0.44 mg/kg, AUC(0-t)
parameter: AUC(0-t) (ng·h/mL)

> print(dat)
                     compound  parameter  assayvalue
1  CNCCc1ccccn1 [betahistine]   AUC(0-t)        26.5

---

- assayExplanation: Pharmacokinetic profile after single oral, intranasal and intravenous betahistine in beagle dogs, Example 5
- Assay type: in vivo
- reportedConditions: male, beagle, dog, in vivo, po, 12 mg/kg, AUC(0-6)
parameter: AUC(0-t)

> print(dat)
   chemicalstring  assayvalue
1    CNCCc1ccccn1  13 ng·h/mL

The reported measurements were obtained from patent US20200022963A1.
